# target: HDAC1 enzyme (recombinant GST-HDAC1) (Homo sapiens (Human))
# Sequence (Q13547 whole entry): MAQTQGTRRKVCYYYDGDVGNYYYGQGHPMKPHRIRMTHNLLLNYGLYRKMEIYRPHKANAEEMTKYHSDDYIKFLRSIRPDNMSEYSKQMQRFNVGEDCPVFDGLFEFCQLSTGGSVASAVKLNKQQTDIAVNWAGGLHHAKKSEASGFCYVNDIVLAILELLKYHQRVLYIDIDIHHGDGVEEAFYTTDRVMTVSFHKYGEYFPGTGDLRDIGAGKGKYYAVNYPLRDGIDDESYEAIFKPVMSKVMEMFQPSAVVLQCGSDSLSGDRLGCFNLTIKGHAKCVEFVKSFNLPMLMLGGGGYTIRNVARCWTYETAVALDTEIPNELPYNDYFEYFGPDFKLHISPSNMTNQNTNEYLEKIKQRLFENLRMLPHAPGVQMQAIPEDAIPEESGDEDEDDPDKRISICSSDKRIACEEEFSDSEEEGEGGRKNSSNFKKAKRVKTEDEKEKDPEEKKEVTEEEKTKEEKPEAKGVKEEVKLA
# assay text: In vitro HDAC assay (BIOMOL fluorescent-based HDAC activity assay), HDAC1
# Type: biochemical
# condition set: read-out: HDAC1 Enzyme Activity IC50
readout: IC50 (µM)

> print(dat)
                                    compound  unit.text  reported.result
 1          CCn1c(C)nc2cc(/C=C/C(=O)NO)ccc21         µM            0.947
 2  O=C(/C=C/c1ccc2c(c1)nc(CCc1ccccc1)n2Cc1cccnc1)NO         µM            0.131
 3  O=C(/C=C/c1ccc2c(c1)nc(CCc1ccccc1)n2CCc1cccnc1)NO         µM            0.092
 4  CCN(CC)CCn1c(CCc2ccccc2)nc2cc(/C=C/C(=O)NO)ccc21         µM            0.072
 5  O=C(/C=C/c1ccc2c(c1)nc(CCc1ccccc1)n2CCCN1CCCC1=O)NO         µM            0.195
 6            CCCn1cnc2cc(/C=C/C(=O)NO)ccc21         µM            0.897
 7  O=C(/C=C/c1ccc2c(c1)nc(-c1ccncc1)n2CCO)NO         µM             2.66
 8  O=C(/C=C/c1ccc2c(c1)nc(CCc1ccccc1)n2Cc1ccccc1)NO         µM            0.449
 9  CC(C)Cc1nc2cc(/C=C/C(=O)NO)ccc2n1Cc1ccccc1         µM             1.46
10  CN(C)CC(C)(C)Cn1c([S+]([O-])Cc2ccccc2)nc2cc(/C=C/C(=O)NO)ccc21 (stereo not drawn)         µM             0.03
11     O=C(/C=C/c1ccc2c(c1)ncn2CCc1ccccn1)NO         µM            0.479
12  CCn1c(Cc2ccccc2)nc2cc(/C=C/C(=O)NO)ccc21         µM            0.168
